target: T1, CD3 epsilon homodimer protein (UniProt P07766 23-126); assay: SPR Biacore T200, CD3e homodimer on chip, vs unaltered GLS3000 antibody
T1 construct: also called CD3 (CD3 epsilon)
T1 sequence (P07766 23-126): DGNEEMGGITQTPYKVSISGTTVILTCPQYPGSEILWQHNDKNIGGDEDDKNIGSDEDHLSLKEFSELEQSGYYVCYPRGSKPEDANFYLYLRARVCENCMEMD
Assign MET whenever ratio of amounts bound (Z=Y/X) does not fall below 0.4; assign NOT MET whenever it does.

binder: GLS3000 T92I (antibody, name in Kabat numbering, V domains shown, one-arm IgG as m2) VH: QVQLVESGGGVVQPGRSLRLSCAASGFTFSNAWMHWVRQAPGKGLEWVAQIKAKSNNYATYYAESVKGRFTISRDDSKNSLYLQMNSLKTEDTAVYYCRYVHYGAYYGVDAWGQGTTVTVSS VL: DIVMTQSPLSLPVTPGEPASISCRSSQSLVHSNRNTYLHWYQQKPGQAPRLLIYKVSNRFSGVPDRFSGSGSGTDFTLKISRVEAEDVGVYYCGQGIQVPYTFGQGTKLEIK
label: NOT MET
--
binder: GLS3000 V94L (antibody, name in Kabat numbering, V domains shown, one-arm IgG as m2) VH: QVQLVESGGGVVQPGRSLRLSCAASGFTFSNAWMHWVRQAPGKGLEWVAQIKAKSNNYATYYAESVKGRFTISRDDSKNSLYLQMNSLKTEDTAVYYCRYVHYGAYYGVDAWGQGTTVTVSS VL: DIVMTQSPLSLPVTPGEPASISCRSSQSLVHSNRNTYLHWYQQKPGQAPRLLIYKVSNRFSGVPDRFSGSGSGTDFTLKISRVEAEDVGVYYCGQGTQLPYTFGQGTKLEIK
label: MET
--
binder: GLS3000 S27aI (antibody, name in Kabat numbering, V domains shown, one-arm IgG as m2) VH: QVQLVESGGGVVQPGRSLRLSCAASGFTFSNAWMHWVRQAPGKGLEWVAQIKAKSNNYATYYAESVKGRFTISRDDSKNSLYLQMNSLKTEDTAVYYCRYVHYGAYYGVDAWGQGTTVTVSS VL: DIVMTQSPLSLPVTPGEPASISCRSSQILVHSNRNTYLHWYQQKPGQAPRLLIYKVSNRFSGVPDRFSGSGSGTDFTLKISRVEAEDVGVYYCGQGTQVPYTFGQGTKLEIK
label: MET
--
binder: GLS3000 G89Y (antibody, name in Kabat numbering, V domains shown, one-arm IgG as m2) VH: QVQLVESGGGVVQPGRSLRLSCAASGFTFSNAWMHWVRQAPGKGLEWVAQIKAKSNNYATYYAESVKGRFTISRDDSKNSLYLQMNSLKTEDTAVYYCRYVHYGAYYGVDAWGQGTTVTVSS VL: DIVMTQSPLSLPVTPGEPASISCRSSQSLVHSNRNTYLHWYQQKPGQAPRLLIYKVSNRFSGVPDRFSGSGSGTDFTLKISRVEAEDVGVYYCYQGTQVPYTFGQGTKLEIK
label: MET
--
binder: GLS3000 V27cS (antibody, name in Kabat numbering, V domains shown, one-arm IgG as m2) VH: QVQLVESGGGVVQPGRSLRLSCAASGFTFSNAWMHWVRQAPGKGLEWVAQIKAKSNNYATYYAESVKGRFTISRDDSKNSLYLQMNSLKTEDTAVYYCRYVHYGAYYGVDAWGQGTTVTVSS VL: DIVMTQSPLSLPVTPGEPASISCRSSQSLSHSNRNTYLHWYQQKPGQAPRLLIYKVSNRFSGVPDRFSGSGSGTDFTLKISRVEAEDVGVYYCGQGTQVPYTFGQGTKLEIK
label: MET
--
binder: GLS3000 V51D (antibody, name in Kabat numbering, V domains shown, one-arm IgG as m2) VH: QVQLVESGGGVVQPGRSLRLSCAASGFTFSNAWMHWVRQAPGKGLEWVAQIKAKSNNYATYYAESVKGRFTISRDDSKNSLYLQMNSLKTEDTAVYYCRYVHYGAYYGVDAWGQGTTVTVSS VL: DIVMTQSPLSLPVTPGEPASISCRSSQSLVHSNRNTYLHWYQQKPGQAPRLLIYKDSNRFSGVPDRFSGSGSGTDFTLKISRVEAEDVGVYYCGQGTQVPYTFGQGTKLEIK
label: NOT MET
--
binder: GLS3000 R24A (antibody, name in Kabat numbering, V domains shown, one-arm IgG as m2) VH: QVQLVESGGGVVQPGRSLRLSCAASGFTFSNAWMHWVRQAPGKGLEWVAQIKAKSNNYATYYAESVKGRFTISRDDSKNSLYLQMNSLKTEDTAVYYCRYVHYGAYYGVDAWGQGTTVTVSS VL: DIVMTQSPLSLPVTPGEPASISCASSQSLVHSNRNTYLHWYQQKPGQAPRLLIYKVSNRFSGVPDRFSGSGSGTDFTLKISRVEAEDVGVYYCGQGTQVPYTFGQGTKLEIK
label: MET
--
binder: GLS3000 H27dD (antibody, name in Kabat numbering, V domains shown, one-arm IgG as m2) VH: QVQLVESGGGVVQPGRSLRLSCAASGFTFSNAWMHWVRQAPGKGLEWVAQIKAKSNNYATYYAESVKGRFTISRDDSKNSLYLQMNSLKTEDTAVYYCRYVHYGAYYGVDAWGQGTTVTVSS VL: DIVMTQSPLSLPVTPGEPASISCRSSQSLVDSNRNTYLHWYQQKPGQAPRLLIYKVSNRFSGVPDRFSGSGSGTDFTLKISRVEAEDVGVYYCGQGTQVPYTFGQGTKLEIK
label: NOT MET
--
binder: GLS3000 S26E (antibody, name in Kabat numbering, V domains shown, one-arm IgG as m2) VH: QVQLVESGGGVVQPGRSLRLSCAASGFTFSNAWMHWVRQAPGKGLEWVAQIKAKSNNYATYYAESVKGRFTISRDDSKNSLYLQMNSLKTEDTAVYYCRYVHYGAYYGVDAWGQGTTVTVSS VL: DIVMTQSPLSLPVTPGEPASISCRSEQSLVHSNRNTYLHWYQQKPGQAPRLLIYKVSNRFSGVPDRFSGSGSGTDFTLKISRVEAEDVGVYYCGQGTQVPYTFGQGTKLEIK
label: MET
--
binder: GLS3000 Q27L (antibody, name in Kabat numbering, V domains shown, one-arm IgG as m2) VH: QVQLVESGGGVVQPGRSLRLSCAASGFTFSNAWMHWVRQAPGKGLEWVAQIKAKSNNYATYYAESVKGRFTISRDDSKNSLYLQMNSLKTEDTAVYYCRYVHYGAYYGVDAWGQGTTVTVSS VL: DIVMTQSPLSLPVTPGEPASISCRSSLSLVHSNRNTYLHWYQQKPGQAPRLLIYKVSNRFSGVPDRFSGSGSGTDFTLKISRVEAEDVGVYYCGQGTQVPYTFGQGTKLEIK
label: MET

Sourced from patent US20210388087A1
